Quick reference for Average PBMC TFV-DP among some molecules
- Test system: PBMCs
- method summary: TFV-DP formation in peripheral blood mononuclear cells (PBMCs)
- Type: in vitro ADME, human
- stated conditions: activated PBMCs, 1 μM compound, 50% serum, 2 hrs at 37° C.; intracellular volume 0.2 pL/cell; average of at least two independent experiments

| smiles string | unit of measure | Average PBMC TFV-DP |
| --- | --- | --- |
| C[C@H](Cn1cnc2c(N)ncnc21)OCP(=O)(NC(C)(C)C(=O)OCCc1ccccc1)NC(C)(C)C(=O)OCCc1ccccc1 | µM | 0.4 |
| CCCCCCOC(=O)C(C)(C)NP(=O)(CO[C@H](C)Cn1cnc2c(NC(=O)CCCSC(C)=O)ncnc21)NC(C)(C)C(=O)OCCCCCC | µM | 1.4 |
| CCCCCCOC(=O)C(C)(C)NP(=O)(CO[C@H](C)Cn1cnc2c(NC(=O)CC(C)(C)c3c(C)cc(C)cc3OC(C)=O)ncnc21)NC(C)(C)C(=O)OCCCCCC | µM | 1.9 |
| C[C@H](Cn1cnc2c(N)ncnc21)OCP(=O)(NC(C)(C)C(=O)OCC1CCC(C)(C)CC1)NC(C)(C)C(=O)OCC1CCC(C)(C)CC1 | µM | 2.6 |

Values compiled from patent US12110305B2.
